test system: HOP-62 NSCLC; assay: NCI-60 one-dose screen, 48 h (100 = growth as untreated, 0 = no growth, -100 = all killed); settings: 10 µM unless noted
The panel holds about 83,000 compounds, 20% with a hit somewhere; the sample as a whole holds those more often.
Strictly below 80% in growth: fulfilled. Otherwise: not fulfilled.

Look over these answered cases.
- Molecule: "COc1ccc(C2=Nc3c(N)nc(N)nc3NC(c3ccc(Oc4nc(Nc5ccc(F)cc5)nc(N(C)C)n4)c(OC)c3)C2)cc1 (centres undefined)"
  Cat: "not fulfilled"
- Molecule: "COc1cc(/C=C/C(=O)c2cnn(-c3cc(=O)[nH]c4ccccc34)c2C)cc(OC)c1OC"
  Cat: "fulfilled"
- Molecule: "O=C(Nc1nc2ccc([N+](=O)[O-])cc2s1)Nc1ccc(Cl)cc1Cl"
  Cat: "fulfilled"

Now for a further molecule.
is_below(growth, 80%) for CN1C(=O)C2(C(C#N)=C(c3ccc(Cl)cc3)Nc3c2c(-c2ccccc2)nn3-c2ccccc2)c2ccccc21 (centres undefined) ?
fulfilled
